Reference for the values: patent US20120178682A1

- Tested on: D-VEGF
- experiment_notes: SPR affinity measurements of GB1 peptidic compounds on immobilized D-VEGF
- Type: binding
- conditions_used: Table 1; target D-VEGF; E01 point mutants expressed in E. coli
quantity: Kon
Form field: result (number plus unit)

E01-S38G: E01 point mutant S38G (protein) MKIEEHHHHHHHHHHGGSTYKLILNGKTLKGETTTEAVDVYDAFDVFFVYAASNFGDFDDWTYDDATKTFTVTEGGSDK : 428000 M⁻¹ s⁻¹

Let us move to another entry and its Kon.
Enquiry: Which Kon is reported for this molecule? E01-D39F: E01 point mutant D39F; scaffold for double mutants (protein) MKIEEHHHHHHHHHHGGSTYKLILNGKTLKGETTTEAVDVYDAFDVFFVYAASNFSFFDDWTYDDATKTFTVTEGGSDK
Return: 504000 M⁻¹ s⁻¹
